Please provide measured GI50 for the entries that follow.
Biological target: Ba/F3_KRAS^G12D cells (Homo sapiens, UniProt P01116, G12D, cells depend on it)
Sequence (P01116 whole entry G12D): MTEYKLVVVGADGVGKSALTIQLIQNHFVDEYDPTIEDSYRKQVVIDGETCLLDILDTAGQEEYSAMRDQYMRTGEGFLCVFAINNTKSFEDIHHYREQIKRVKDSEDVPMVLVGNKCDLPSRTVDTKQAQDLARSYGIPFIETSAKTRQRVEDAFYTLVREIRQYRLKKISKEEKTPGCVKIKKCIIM
Assay: Ba/F3 KRAS G12D cell proliferation assay (CellTiter-Glo)
Assay type: cell-based
Details: treated for 3 days, cell-titer Glo, cell growth inhibition, read-out: BaF3_KRAS^G12D IC50

Input: Please report the measured GI50 for C#Cc1c(F)ccc2cc(O)cc(-c3c(OCC)cc4c(N5CC6CCC(C5)N6)nc(OC[C@@]56CCCN5C[C@H](F)C6)nc4c3F)c12 [Compound 161]
Output: < 0.5 µM

Input: Please report the measured GI50 for CN1C[C@H](O)C[C@H]1COc1nc(N2CC3CCC(C2)N3)c2cc(Cl)c(-c3cc(O)cc4ccccc34)c(F)c2n1
Output: > 5 µM

Input: Please report the measured GI50 for CN1CCC(Oc2nc(N3CC4CCC(C3)N4)c3cc(Cl)c(-c4cc(O)cc5ccccc45)c(F)c3n2)CC1
Output: 0.5 to 5 µM

Input: Please report the measured GI50 for Nc1cccc(F)c1-c1c(Cl)cc2c(N3CC4CCC(C3)N4)nc(OCC34CCCN3CCC4)nc2c1F
Output: > 5 µM

Input: Please report the measured GI50 for CN1CCC[C@H]1COc1nc(N2CC3CCC(C2)N3)c2cc(Cl)c(-c3cc(O)cc4ccccc34)c(F)c2n1
Output: 0.5 to 5 µM

Input: Please report the measured GI50 for Fc1c(-c2cccc3cccc(Cl)c23)c(Cl)cc2c(N3C4CCC3CNC4)nc(OCC34CCCN3CCC4)nc12
Output: 0.5 to 5 µM

Input: Please report the measured GI50 for Oc1cc(-c2c(Cl)cc3c(N4CC5CCC(C4)N5)nc(OCC45CCCN4CCC5)nc3c2F)c2c(Cl)cccc2c1
Output: 0.5 to 5 µM

Input: Please report the measured GI50 for CN1CCC[C@H]1COc1nc(N2CC3CCCC(C2)N3)c2cc(Cl)c(-c3cc(O)cc4cccc(Cl)c34)c(F)c2n1
Output: 0.5 to 5 µM

Input: Please report the measured GI50 for N#Cc1cc2c(N3CC4CCC(C3)N4)nc(OC[C@@]34CCCN3C[C@H](F)C4)nc2c(F)c1-c1cccc2cccc(Cl)c12
Output: 0.5 to 5 µM
